- Test system: HCT-15
- experimentDescription: Cytotoxicity against human HCT-15 cells
- Type: functional, cell-based

# compoundSmiles, IC50 / nM
rows = [
    ("COc1ccc(OC)c(-c2nc(/C=C3/C(=O)N(Cc4ccccc4)c4ccc(Br)cc43)cc3c2[nH]c2ccccc23)c1", 1430),
]

---

The compounds below have reported IC50 for DNA topoisomerase 1 (Homo sapiens).
measureName: IC50 (µM)

# compoundSmiles, systemName, reportedMeasurement
data = [
    ("Cc1ccc(-n2c(-c3cc4c([nH]c5ccccc54)c(-c4cccc(O)c4)n3)n[nH]c2=S)cc1", "DNA topoisomerase 1 (Homo sapiens)", 2.5),
    ("c1ccc2c(c1)[nH]c1cnccc12", "DNA topoisomerase 1 (Homo sapiens)", 31),
    ("CSc1nnc(-c2cc3c([nH]c4ccccc43)c(-c3cccc(O)c3)n2)o1", "DNA topoisomerase 1 (Homo sapiens)", 7.8),
    ("O=C(NNC(=S)Nc1ccc(Br)cc1)c1cc2c([nH]c3ccccc32)c(-c2cccc(O)c2)n1", "DNA topoisomerase 1 (Homo sapiens)", 5.8),
]

---

- Tested on: MCF7
- experimentDescription: Cytotoxicity against human MCF7 cells measured after 48 hrs by MTT assay
- Assay type: functional, cell-based
- testParameters: MCF7, 48 h
pIC50: −log10 of the molar value.

# compoundSmiles, pIC50
rows = [
    ("COc1ccc(-c2nc(Cn3cc(CN4C(=O)c5cccc6cccc(c56)C4=O)nn3)cc3c2[nH]c2ccccc23)cc1OC", 5.13),
    ("COc1cc(-c2nc(Cn3cc(CN4C(=O)c5ccccc5C4=O)nn3)cc3c2[nH]c2ccccc23)cc(OC)c1OC", 5.44),
]

---

- System: PANC-1
- experimentDescription: Antiproliferative activity against human PANC-1 cells incubated for 72 hrs by MTT assay
- Type: functional, cell-based
- testParameters: PANC-1, 72 h

# compoundSmiles, measurementUnits, IC50
rows = [
    ("CCCn1c2cc(OCCC(C)C)ccc2c2cc[n+](Cc3ccccn3)c(C)c21", "µM", 0.2),
]

---

- systemName: Serine/threonine-protein kinase haspin (Homo sapiens)
- Sequence (Q8TF76 whole entry): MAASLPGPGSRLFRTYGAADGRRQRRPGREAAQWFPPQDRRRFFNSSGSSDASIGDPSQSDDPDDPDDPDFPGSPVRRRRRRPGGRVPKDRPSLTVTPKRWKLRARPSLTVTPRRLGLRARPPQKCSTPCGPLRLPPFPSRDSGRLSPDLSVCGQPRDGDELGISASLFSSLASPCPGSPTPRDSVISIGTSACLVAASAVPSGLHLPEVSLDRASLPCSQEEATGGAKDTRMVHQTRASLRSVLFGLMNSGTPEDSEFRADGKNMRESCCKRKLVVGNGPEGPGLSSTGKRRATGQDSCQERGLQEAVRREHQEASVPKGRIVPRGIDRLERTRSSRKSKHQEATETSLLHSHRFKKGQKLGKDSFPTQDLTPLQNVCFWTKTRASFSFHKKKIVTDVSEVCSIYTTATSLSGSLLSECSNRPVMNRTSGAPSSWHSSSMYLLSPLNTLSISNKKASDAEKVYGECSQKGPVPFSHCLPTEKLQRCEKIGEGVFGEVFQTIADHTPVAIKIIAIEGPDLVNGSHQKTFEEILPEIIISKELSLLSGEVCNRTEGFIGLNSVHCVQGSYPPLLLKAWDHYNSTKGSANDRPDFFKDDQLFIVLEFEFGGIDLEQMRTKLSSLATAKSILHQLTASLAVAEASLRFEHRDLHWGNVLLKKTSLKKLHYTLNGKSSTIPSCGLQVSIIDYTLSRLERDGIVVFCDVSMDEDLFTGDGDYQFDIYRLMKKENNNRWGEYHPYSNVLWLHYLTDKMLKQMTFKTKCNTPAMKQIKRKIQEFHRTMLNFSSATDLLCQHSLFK

# compoundSmiles, systemName, IC50 / nM
data = [
    ("Cc1nccc2c1[nH]c1cc(O)ccc12", "Serine/threonine-protein kinase haspin (Homo sapiens)", 770),
]

---

- System: HT-1080
- experimentDescription: Cytotoxicity against human HT-1080 cells
- Type: functional, cell-based
measureName: IC50 (µM)

# compoundSmiles, systemName, measureName, reportedMeasurement
records = [
    ("COc1ccc2c3ccnc4c(OC)cc(=O)n(c2c1)c43", "HT-1080", "IC50", 5),
    ("COc1c(O)ccc2c1c1ccnc3ccc(=O)n2c31", "HT-1080", "IC50", 7.2),
]

---

- Tested on: Huh-7
- experimentDescription: Cytotoxicity against human Huh-7 cells measured after 72 hrs by MTT assay
- Format: functional, cell-based
- testParameters: Huh-7, 72 h
pIC50: −log10 of the molar value.

# compoundSmiles, pIC50
data = [
    ("CN(C)c1ccc(-c2nc(C(=O)NCc3ccc(/C=C/C(=O)NO)cc3)cc3c2[nH]c2ccccc23)cc1", 5.74),
]

---

- Tested on: HT-29
- experimentDescription: Antitumor activity against human HT-29 cells assessed as inhibition of cell growth measured after 48 hrs by spectrophotometric analysis
- Assay type: functional, cell-based
- testParameters: HT-29, 48 h
pIC50: −log10 of the molar value.

# compoundSmiles, pIC50
rows = [
    ("c1ccc(-c2nc(-c3nnc4snnn34)cc3c2[nH]c2ccccc23)cc1", 7.10),
]

---

- systemName: Kinesin-like protein KIF11 (Homo sapiens)
- Sequence (P52732 whole entry): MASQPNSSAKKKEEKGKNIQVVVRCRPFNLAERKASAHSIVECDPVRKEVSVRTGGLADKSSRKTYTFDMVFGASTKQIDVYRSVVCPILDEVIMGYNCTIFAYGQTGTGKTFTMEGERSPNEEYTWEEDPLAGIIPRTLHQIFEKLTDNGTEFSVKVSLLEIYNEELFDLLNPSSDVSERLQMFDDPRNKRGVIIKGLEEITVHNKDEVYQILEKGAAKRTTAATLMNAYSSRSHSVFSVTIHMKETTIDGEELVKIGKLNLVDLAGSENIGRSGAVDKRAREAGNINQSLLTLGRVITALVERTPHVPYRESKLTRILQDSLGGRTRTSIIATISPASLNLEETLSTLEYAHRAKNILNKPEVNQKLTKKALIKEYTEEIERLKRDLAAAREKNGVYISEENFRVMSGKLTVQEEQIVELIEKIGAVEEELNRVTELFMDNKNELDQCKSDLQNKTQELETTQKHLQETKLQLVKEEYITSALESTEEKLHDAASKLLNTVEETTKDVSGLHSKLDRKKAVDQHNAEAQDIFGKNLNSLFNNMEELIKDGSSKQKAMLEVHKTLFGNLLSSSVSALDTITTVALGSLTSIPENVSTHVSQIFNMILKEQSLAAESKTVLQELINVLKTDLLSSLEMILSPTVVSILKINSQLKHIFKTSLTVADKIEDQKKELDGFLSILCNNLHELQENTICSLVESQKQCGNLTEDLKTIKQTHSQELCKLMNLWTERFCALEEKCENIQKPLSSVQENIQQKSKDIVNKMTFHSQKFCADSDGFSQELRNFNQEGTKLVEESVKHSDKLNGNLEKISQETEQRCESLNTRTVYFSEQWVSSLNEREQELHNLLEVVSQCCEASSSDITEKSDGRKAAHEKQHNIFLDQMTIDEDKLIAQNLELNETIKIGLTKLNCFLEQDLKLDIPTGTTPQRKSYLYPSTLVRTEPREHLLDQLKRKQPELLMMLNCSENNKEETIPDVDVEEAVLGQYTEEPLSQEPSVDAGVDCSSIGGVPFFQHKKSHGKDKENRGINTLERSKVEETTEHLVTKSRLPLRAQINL
measureName: IC50 (µM)

# compoundSmiles, measurementUnits, reportedMeasurement
records = [
    ("CSc1nnc(-c2cc3c([nH]c4ccccc43)c(-c3cccc(O)c3)n2)o1", "µM", 8.73),
]

---

- Test system: SUNE1
- experimentDescription: Cytotoxicity against human SUNE1 cells incubated for 72 hrs by MTT assay
- Format: functional, cell-based
- testParameters: SUNE1, 72 h

# compoundSmiles, IC50, µM
data = [
    ("O=C(c1nccc2c1[nH]c1ccccc12)[C@@H](O)CCCO", 45.3),
]

---

# IC50 listing for each entry below
- System: L1210
- experimentDescription: Cytotoxicity against mouse L1210 cells
- Assay type: functional, cell-based

# compound, systemName, measurementUnits, IC50
data = [
    ("O[C@]12C=C(C3NCCc4c3[nH]c3ccccc43)[C@@H]3CCN(CCCC/C=C\\CC1)C[C@@]31CC/C=C\\CCCCN[C@H]12 (stereo partly specified)", "L1210", "mg/L", 1.3),
    ("O[C@]12C=C(c3nccc4c3[nH]c3ccccc34)[C@@H]3CCN(CCCC/C=C\\CC1)C[C@@]31CC/C=C\\CCCCN[C@H]12 [MANZAMINE J]", "L1210", "mg/L", 2.6),
    ("COc1ccc2[nH]c3c(c2c1)CCN1OCSC[C@@H](N)C31 (stereo partly specified)", "L1210", "mg/L", 0.005),
    ("O[C@H]1[C@H]2[C@@H]3c4[nH]c5ccccc5c4CCN3CN3CCCC/C=C\\CC[C@@]45CN(CCCC/C=C\\CC[C@@]1(O)[C@H]34)CC[C@@H]25", "L1210", "mg/L", 4.4),
    ("Oc1ccc2[nH]c3c(C4=C[C@@]5(O)CC/C=C\\CCCCN6CC[C@@H]4[C@]4(C[C@@H]7/C=C\\CCCCN7[C@H]45)C6)nccc3c2c1 [MANZAMINE Y]", "L1210", "mg/L", 1.5),
    ("Cn1c2cnccc2c2c(Br)c(O)ccc21", "L1210", "mg/L", 2.4),
]

The origin of these recorded values is ChEMBL document CHEMBL5241090.
